Test system: rat hepatic microsomal PTPases
STUDY CONDITIONS: PTPase activity, compound at 50 μM
Label 1.0 when % Change from Control is at or above -50%; anything below gets 0.0.

>  <MOLECULE>
O=C(O)COc1c(Br)cc(-c2c3ccccc3c(Br)c3c2c2ccccc2[s+]3[O-])cc1Br (stereo not drawn)

>  <EXPERIMENTAL TARGET>
rat hepatic microsomal PTPases

>  <ASSIGNED LABEL>
0.0

$$$$
>  <MOLECULE>
Oc1c(Br)cc(-c2c3ccccc3c(C(F)(F)F)c3sc4ccccc4c23)cc1Br

>  <EXPERIMENTAL TARGET>
rat hepatic microsomal PTPases

>  <ASSIGNED LABEL>
0.0

$$$$
>  <MOLECULE>
O=C(O)C(Cc1c[nH]c2ccccc12)Oc1c(Br)cc(-c2c3ccccc3c(Br)c3sc4ccccc4c23)cc1Br (racemic)

>  <EXPERIMENTAL TARGET>
rat hepatic microsomal PTPases

>  <ASSIGNED LABEL>
0.0

$$$$
>  <MOLECULE>
O=C(O)COc1ccc(-c2c3ccccc3cc3sc4ccccc4c23)cc1I

>  <EXPERIMENTAL TARGET>
rat hepatic microsomal PTPases

>  <ASSIGNED LABEL>
0.0

$$$$
>  <MOLECULE>
O=C(O)C[C@@H](Oc1c(Br)cc(-c2c3ccccc3c(Br)c3sc4ccccc4c23)cc1Br)C(=O)O

>  <EXPERIMENTAL TARGET>
rat hepatic microsomal PTPases

>  <ASSIGNED LABEL>
0.0

$$$$
>  <MOLECULE>
COc1c(C#N)cc(-c2c3ccccc3cc3sc4ccccc4c23)cc1C#N

>  <EXPERIMENTAL TARGET>
rat hepatic microsomal PTPases

>  <ASSIGNED LABEL>
1.0

$$$$
>  <MOLECULE>
O=C1NC(=O)C(Oc2c(Br)cc(-c3c4ccccc4c(Br)c4sc5ccccc5c34)cc2Br)S1 (stereo not drawn)

>  <EXPERIMENTAL TARGET>
rat hepatic microsomal PTPases

>  <ASSIGNED LABEL>
0.0

$$$$
>  <MOLECULE>
O=C(O)COc1ccc(-c2c3ccccc3cc3oc4ccccc4c23)cc1

>  <EXPERIMENTAL TARGET>
rat hepatic microsomal PTPases

>  <ASSIGNED LABEL>
0.0

$$$$
>  <MOLECULE>
O=C(O)[C@H](Cc1ccccc1)Oc1c(Br)cc(-c2c3ccccc3c(Br)c3sc4ccccc4c23)cc1Br

>  <EXPERIMENTAL TARGET>
rat hepatic microsomal PTPases

>  <ASSIGNED LABEL>
0.0

$$$$
>  <MOLECULE>
Cc1c2ccccc2c(-c2cc(Br)c(O)c(Br)c2)c2c1sc1ccccc12

>  <EXPERIMENTAL TARGET>
rat hepatic microsomal PTPases

>  <ASSIGNED LABEL>
1.0

$$$$
>  <MOLECULE>
Oc1cc(-c2c3ccccc3c(Br)c3sc4ccccc4c23)cc(Br)c1O

>  <EXPERIMENTAL TARGET>
rat hepatic microsomal PTPases

>  <ASSIGNED LABEL>
1.0

$$$$
>  <MOLECULE>
N#CCOc1c(Br)cc(-c2c3ccccc3c(Br)c3sc4ccccc4c23)cc1Br

>  <EXPERIMENTAL TARGET>
rat hepatic microsomal PTPases

>  <ASSIGNED LABEL>
1.0

$$$$
>  <MOLECULE>
O=C(O)[C@@H](Cc1ccccc1)Oc1c(Br)cc(-c2c3ccccc3c(C(F)(F)F)c3sc4ccccc4c23)cc1Br

>  <EXPERIMENTAL TARGET>
rat hepatic microsomal PTPases

>  <ASSIGNED LABEL>
0.0

$$$$
>  <MOLECULE>
N#Cc1c2ccccc2c(-c2ccc(O[C@H](Cc3ccccc3)C(=O)O)cc2)c2c1sc1ccccc12

>  <EXPERIMENTAL TARGET>
rat hepatic microsomal PTPases

>  <ASSIGNED LABEL>
0.0

$$$$
>  <MOLECULE>
O=C(O)[C@@H](CCN1C(=O)c2ccccc2C1=O)Oc1c(Br)cc(-c2c3ccccc3cc3sc4ccccc4c23)cc1Br

>  <EXPERIMENTAL TARGET>
rat hepatic microsomal PTPases

>  <ASSIGNED LABEL>
0.0

$$$$
>  <MOLECULE>
CC(C)c1cc(-c2c3ccccc3c(Br)c3sc4ccccc4c23)cc(C(C)C)c1O

>  <EXPERIMENTAL TARGET>
rat hepatic microsomal PTPases

>  <ASSIGNED LABEL>
1.0

$$$$
>  <MOLECULE>
Oc1c(Br)cc(-c2c3ccccc3c(Br)c3sc4ccccc4c23)cc1Br

>  <EXPERIMENTAL TARGET>
rat hepatic microsomal PTPases

>  <ASSIGNED LABEL>
1.0

$$$$
>  <MOLECULE>
CS(=O)(=O)Oc1ccc(-c2c3ccccc3c(I)c3sc4ccccc4c23)cc1

>  <EXPERIMENTAL TARGET>
rat hepatic microsomal PTPases

>  <ASSIGNED LABEL>
1.0

$$$$
>  <MOLECULE>
O=C(O)COc1c2ccccc2c(-c2cc(Br)c(O[C@H](Cc3ccccc3)C(=O)O)c(Br)c2)c2c1sc1ccccc12

>  <EXPERIMENTAL TARGET>
rat hepatic microsomal PTPases

>  <ASSIGNED LABEL>
0.0

$$$$
>  <MOLECULE>
O=C(O)COc1ccc(-c2c3ccccc3cc3sc4ccccc4c23)cc1

>  <EXPERIMENTAL TARGET>
rat hepatic microsomal PTPases

>  <ASSIGNED LABEL>
0.0

$$$$
>  <MOLECULE>
C[C@H](Oc1cc(-c2c3ccccc3c(Br)c3sc4ccccc4c23)ccc1Br)C(=O)O

>  <EXPERIMENTAL TARGET>
rat hepatic microsomal PTPases

>  <ASSIGNED LABEL>
0.0

$$$$
>  <MOLECULE>
COc1cc(-c2c3ccccc3c(Br)c3sc4ccccc4c23)cc(Br)c1O[C@H](Cc1ccccc1)C(=O)O

>  <EXPERIMENTAL TARGET>
rat hepatic microsomal PTPases

>  <ASSIGNED LABEL>
0.0

$$$$
>  <MOLECULE>
Oc1c(Br)cc(-c2c3ccccc3c(I)c3sc4ccccc4c23)cc1Br

>  <EXPERIMENTAL TARGET>
rat hepatic microsomal PTPases

>  <ASSIGNED LABEL>
1.0

$$$$
>  <MOLECULE>
CC(C)(Oc1c(Br)cc(-c2c3ccccc3c(Br)c3sc4ccccc4c23)cc1Br)C(=O)O

>  <EXPERIMENTAL TARGET>
rat hepatic microsomal PTPases

>  <ASSIGNED LABEL>
1.0

$$$$
>  <MOLECULE>
O=C(O)[C@@H](Cc1ccccc1)Oc1c(Br)cc(-c2c3ccccc3c(OCc3ccccc3)c3sc4ccccc4c23)cc1Br

>  <EXPERIMENTAL TARGET>
rat hepatic microsomal PTPases

>  <ASSIGNED LABEL>
1.0

$$$$
>  <MOLECULE>
O=C(O)[C@@H](Cc1ccccc1)Oc1c(Br)cc(-c2c3ccccc3c(Cl)c3sc4ccccc4c23)cc1Br

>  <EXPERIMENTAL TARGET>
rat hepatic microsomal PTPases

>  <ASSIGNED LABEL>
1.0

$$$$
>  <MOLECULE>
O=C(O)COc1cc(Br)c(-c2c3ccccc3c(Br)c3sc4ccccc4c23)cc1OCC(=O)O

>  <EXPERIMENTAL TARGET>
rat hepatic microsomal PTPases

>  <ASSIGNED LABEL>
0.0

$$$$
>  <MOLECULE>
O=C(O)[C@@H](Cc1ccccc1)Oc1c(Br)cc(-c2c3c(c(Br)c4ccccc24)S(=O)(=O)c2ccccc2-3)cc1Br

>  <EXPERIMENTAL TARGET>
rat hepatic microsomal PTPases

>  <ASSIGNED LABEL>
0.0

$$$$
>  <MOLECULE>
O=C(O)[C@@H](CCN1C(=O)c2ccccc2C1=O)Oc1c(Br)cc(-c2c3ccccc3c(Br)c3sc4ccccc4c23)cc1Br

>  <EXPERIMENTAL TARGET>
rat hepatic microsomal PTPases

>  <ASSIGNED LABEL>
0.0

$$$$
